Reference source for all entries: patent US9540350B2

Recorded MIC50 values for a group of compounds are listed next.
Tested on: C. albicans ATCC 24433
Experiment: Antifungal susceptibility, broth dilution MIC (CLSI M27-A2)
Format: cell-based
Settings: Candida albicans, ATCC24433; C. albicans ATCC 24433; broth dilution, RPMI 1640 with MOPS, 48 hours; read-out: Activity against organisms (MIC50) Ca01
Description: The compounds of Formula 1 were tested for antifungal activity against Candida albicans, C. glabrata, C. krusei, C. tropicalis, Cryptococcus neoformans, Aspergillus fumigatus, A. niger and Fusarium proliferatum. […] End points were determined after 48 hours visually and by using spectrophotometer wherever necessary. […]

compound: CCCN1CCN(c2ccc(C(C)=O)cc2)CC1 [Compound 11A-1]
result: > 128 µg/mL
//
compound: COc1ccc(C(=O)/C=C/c2cccs2)cc1 [Compound 10A-2]
result: > 8 µg/mL
//
compound: COc1ccc(/C=C/C(=O)c2ccc(OC)cc2)cc1
result: > 4 µg/mL
//
compound: COc1ccc(/C=C/C(=O)c2ccc(O)cc2)cc1
result: > 32 µg/mL
//
compound: COc1ccc(C(=O)/C=C/c2ccc(Cl)cc2)cc1
result: > 4 µg/mL
//
compound: C#CCOc1ccc(/C=C/C(=O)c2ccc(N3CCN(CCCC)CC3)cc2)cc1
result: > 4 µg/mL

Record O=C(/C=C/c1cccs1)c1ccc(O)cc1 [Compound 10A-1] has C. albicans ATCC 24433 MIC50 equal to > 32 µg/mL

* * *

test system: A. fumigatus ATCC 46645; assay: Antifungal susceptibility, broth dilution MIC (CLSI M38-A); assay type: cell-based; settings: Aspergillus fumigatus, ATCC46645; A. fumigatus ATCC 46645; broth dilution, RPMI 1640 with MOPS, 48 hours; read-out: Activity against organisms (MIC50) Afm01
property: MIC50

Please review the entries below; each comes with its answer.
molecule: O=C(/C=C/c1ccc(OCc2cn(CC(O)(Cn3cncn3)c3ccc(F)cc3F)nn2)cc1)c1ccc(F)cc1 (centres unmarked) [Compound 1B-2]
result: > 4 µg/mL

molecule: Cc1cc(C#N)c(N)c(C#N)c1-c1ccc(OCc2cn(CC(O)(Cn3cncn3)c3ccc(F)cc3F)nn2)cc1 (centres unmarked) [Compound 1D-6]
result: > 8 µg/mL

molecule: COc1ccc(/C=C/C(=O)c2ccc(O)cc2)cc1 [Compound 9A-2]
result: > 32 µg/mL

molecule: COc1ccc(/C=C/C(=O)c2ccc(OC)cc2)cc1 [Compound 9A-1]
result: > 4 µg/mL

molecule: COc1ccc(C(=O)/C=C/c2ccc(Cl)cc2)cc1 [Compound 9A-3]
result: > 4 µg/mL

molecule: O=C(/C=C/c1ccc(OCc2cn(CC(O)(Cn3cncn3)c3ccc(F)cc3F)nn2)cc1)C1CC1 (centres unmarked) [Compound 1B-4]
result: > 32 µg/mL

Okay, now this molecule:
Record for O=Cc1ccc(OCc2cn(CC(O)(Cn3cncn3)c3ccc(F)cc3F)nn2)cc1 (centres unmarked) [Compound 1D-2] under target or system A. fumigatus ATCC 46645: MIC50 reported as > 128 µg/mL

* * *

Measured MIC50 accompanies every entry in the list below.
test system: C. tropicalis ATCC 750; assay: Antifungal susceptibility, broth dilution MIC (CLSI M27-A2); assay type: cell-based, Candida tropicalis; conditions: Candida tropicalis, ATCC750; C. tropicalis ATCC 750; broth dilution, RPMI 1640 with MOPS, 48 hours; read-out: Activity against organisms (MIC50) Ct01

A selection of reference data follows.
compound: OCc1cn(CC(O)(Cn2cncn2)c2ccc(F)cc2F)nn1 (stereo not shown)
MIC50: > 128 µg/mL
--
compound: C#CCOc1ccc(/C=C/C(=O)c2ccc(N3CCN(CCC)CC3)cc2)cc1
MIC50: > 4 µg/mL
--
compound: COc1ccc(C(=O)/C=C/c2ccc(Cl)cc2)cc1
MIC50: > 4 µg/mL
--
compound: COc1ccc(/C=C/C(=O)c2ccc(OC)cc2)cc1
MIC50: > 4 µg/mL

Reported C. tropicalis ATCC 750 MIC50 for item `C#CCOc1ccc(/C=C/C(=O)c2ccc(N3CCN(Cc4ccc(OC)cc4)CC3)cc2)cc1` was > 8 µg/mL

Summary line: CCCN1CCN(c2ccc(C(C)=O)cc2)CC1 [Compound 11A-1] , C. tropicalis ATCC 750, reported MIC50 = > 128 µg/mL

CC(=O)Nc1ccc(OCc2cn(CC(O)(Cn3cncn3)c3ccc(F)cc3F)nn2)cc1 (stereo not shown) on C. tropicalis ATCC 750 gives MIC50 = > 128 µg/mL
